- Measured On: human TGR5 (Homo sapiens)
- Construct: expressed in transfected cells
- Sequence (Q8TDU6 whole entry): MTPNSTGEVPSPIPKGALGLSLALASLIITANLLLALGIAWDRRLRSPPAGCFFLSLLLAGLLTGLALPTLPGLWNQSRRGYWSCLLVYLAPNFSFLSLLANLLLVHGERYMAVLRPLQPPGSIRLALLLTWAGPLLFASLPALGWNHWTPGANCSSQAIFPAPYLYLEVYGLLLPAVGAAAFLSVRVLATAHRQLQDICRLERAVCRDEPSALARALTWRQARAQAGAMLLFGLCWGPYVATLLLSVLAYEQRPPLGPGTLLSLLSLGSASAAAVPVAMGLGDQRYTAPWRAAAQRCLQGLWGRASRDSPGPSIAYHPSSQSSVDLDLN
- Experimental Details: Cell-based TGR5 assay, HEK293 cells stably expressing human TGR5, cAMP by HTRF
- Conditions: HEK293 cells stably expressing human TGR5, 30 min at 37 C, 0.05 nM to 10 μM, read-out: pEC50 Human TGR5 (converted)
- Experimental: Two primary cell based screens were performed. The first utilized HEK293 cells stably transfected to heterologously express human TGR5. The second screen used the human caecum carcinoma cell line NCI-H716 which endogenously expresses human TGR5. In both assays, cells are treated with candidate TGR5 activators and assessed for the increased intercellular levels of cAMP. […] TGR5-mediated cAMP generation was measured using a homogeneous time resolved fluorescence (HTRF) detection method (Cisbio). […]
Parameter: EC50

Consider the molecule O=C(N1CCN(C2CC2)c2ccccc21)C1(OCc2c(Cl)cccc2Cl)CC1 and give its recorded EC50. 1.26 to 50.1 µM

Provide only the value of recorded EC50 for O=C(CCCCc1ccc(Cl)c(CNC2(C(=O)N3CCN(C4CC4)c4ccccc43)CC2)c1)NC[C@H](O)[C@@H](O)[C@H](O)[C@H](O)CO [Example 261] 0.126 to 1 µM

State its EC50: CN(C[C@H](O)[C@@H](O)[C@H](O)[C@H](O)CO)C(=O)CCc1cc(Cl)c(COC2(C(=O)N3CCN(C4CC4)c4ccccc43)CC2)cc1Cl < 0.1 µM

Please list EC50 recorded for the molecule CN(C[C@H](O)[C@@H](O)[C@H](O)[C@H](O)CO)C(=O)CCc1ccc(Cl)c(CN2CSC[C@H]2C(=O)N2CCN(C3CC3)c3ccccc32)c1 0.126 to 1 µM

Provide EC50 value for the following molecule: CN(C[C@H](O)[C@@H](O)[C@H](O)[C@H](O)CO)C(=O)NCCCCOc1cc(Cl)c(CN2CSC[C@H]2C(=O)N2CCN(C3CC3)c3ccccc32)cc1Cl < 0.1 µM

Dear colleague, please send me the reported EC50 for O=C(c1cccc(=O)n1Cc1cc(Cl)ccc1Cl)N1CCN(C2CC2)c2ccccc21 when you can. 1.26 to 50.1 µM

Given CN(C[C@H](O)[C@@H](O)[C@H](O)[C@H](O)CO)C(=O)NCCOc1cc(Cl)c(CNC2(C(=O)N3CCN(C4CC4)c4ccccc43)CC2)cc1Cl , respond with its EC50. 0.126 to 1 µM

Item O=C(O)CCc1cc(Cl)c(OCC2(C(=O)N3CCN(C4CC4)c4ccccc43)CC2)cc1Cl : provide EC50 1.26 to 50.1 µM

Please report EC50 for the following molecule: O=C(NCCCN(CCCNC(=O)[C@H](O)[C@@H](O)[C@H](O)[C@H](O)CO)C(=O)c1ccc(COc2cc(Cl)c(CN3CSC[C@H]3C(=O)N3CCN(C4CC4)c4ccccc43)cc2Cl)cc1)[C@H](O)[C@@H](O)[C@H](O)[C@H](O)CO 1.26 to 50.1 µM

Supply EC50 value. Item: CN(C[C@H](O)[C@@H](O)[C@H](O)[C@H](O)CO)C(=O)CCc1ccc(Cl)c(CNC2(C(=O)N3CCN(C4CC4)c4ccccc43)CC2)c1 0.126 to 1 µM

# return recorded EC50 for entry CS(=O)(=O)N1CC(OCc2cc(Cl)ccc2Cl)(C(=O)N2CCN(C3CC3)c3ccccc32)C1 0.126 to 1 µM

Assign EC50 to the following record: CN(C[C@H](O)[C@@H](O)[C@H](O)[C@H](O)CO)C(=O)NCCCCOc1cc(Cl)c(CNC2(C(=O)N3CCN(C4CC4)c4ccccc43)CC2)cc1Cl 0.126 to 1 µM
